# measurement.target: T1, human ASGR-1 (wild type) (human, UniProt P07306 1-291)
# T1 construct: also called wt ASGR1; huASGR-1
# T1 sequence: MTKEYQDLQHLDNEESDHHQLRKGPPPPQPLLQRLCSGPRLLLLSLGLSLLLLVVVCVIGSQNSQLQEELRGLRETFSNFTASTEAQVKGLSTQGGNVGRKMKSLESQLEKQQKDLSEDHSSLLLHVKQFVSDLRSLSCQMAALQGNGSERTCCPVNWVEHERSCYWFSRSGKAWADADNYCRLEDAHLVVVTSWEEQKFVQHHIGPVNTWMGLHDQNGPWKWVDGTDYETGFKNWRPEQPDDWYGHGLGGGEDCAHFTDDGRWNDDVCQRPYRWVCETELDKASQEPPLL
# assay.protocol: flow cytometry, CHO-S:huASGR-1 cells, 11-point titration
EC50 values by entry
Answer as a quantity: numeral, then unit.

193E7 (antibody, V domains shown, mAb) VH: QVQLQQWGAGLLKPSETLSLTCAVYGGSFSGYFWTWIRQPPGKGLEWIGEINHSGSTNYNPSLKSRVTISVDTSKNQFSLKLSSVTAADTAVYYCARDYGADYWGQGTLVAVSA VL: DIQMTQSPSSLSASVGDRVTITCRASQGIRNDLGWYQQKPGKAPKRLIYSASSLQRGVPSRFSGSGSGTEFTLTISSLQPEDFATYYCLQHKRYPLTFGGGTKVEIK	0.13 nM
6G7 (antibody, V domains shown, mAb) VH: QVQLVESGGGVVQPGRSLRLSCAASGFTFSSYGMHWVRQTPGKGLEWVAIISYVGKNKYYADSVKGRFTISRDNSKNTLYLQMNSLRAEDTAVYYCARRGNSYGGYGMDVWGQGTTVTVSS VL: DIQMTQSPSSRSASVGDRVTITCQASQDISNYLNWCQQKPGKALKLLIYDASTLETGVPSRFSGSGSGTDFTFTISSVQPEDIATYYCQQYDNVPITFGQGTRLEIK	0.6 nM

So, 198D2 (antibody, V domains shown, mAb) VH: QVQLVESGGGVVQPGRSLRLSCAASGFTFRSYGMHWVRQAPGKGLEWVAVIIYDGSYKYYADSVKGRFTISRDNSKNTLYLQMNSLRAEDTAVYYCARTYSGGMDVWGQGTTVTVSS VL: QSVLTQPPSVSAAPGQKVTISCSGSSSNIGSNYVSWYQQLPGTAPKVLIYDNNKRPSGIPDRFSGSKSGTSATLGITGLQTGDEADYYCGTWDSRLNVGVFGGGTKLTVL ? Its EC50 was 0.14 nM
